test_name: Acute toxicity (mortality over 24 h)
protocol_conditions: in vivo, po; mouse, 1000 mg/kg p. os, observed 24 h; read-out: p. cent de mortalité à 1000 mg/kg p. os
Entries and their measured mortality at 24 h follow.
measure_name: mortality at 24 h (%)

[[record]]
mol_smiles = "CCCC(=O)NCCCC(=O)NC(C)C"
endpoint_result = 0

[[record]]
mol_smiles = "CCCCNC(=O)CCCNC(=O)C(C)C"
endpoint_result = 0

[[record]]
mol_smiles = "CCCCNC(=O)CCCNC(=O)C(C)(C)C"
endpoint_result = 20


----------
test_name: Acute toxicity (mortality over 24 h)
protocol_conditions: in vivo, po; mouse, 1000 mg/kg p. os, observed 24 h; read-out: p. cent de mortalité à 1000 mg/kg p. os
Entries and their measured mortality at 24 h follow.
measure_name: mortality at 24 h (%)

[[record]]
molecule = "CCCNC(=O)CCCNC(=O)CC(C)C"
units_text = "%"
endpoint_result = 0

[[record]]
molecule = "CCCCCN(CCCCC)C(=O)CCCNC(=O)CCC"
units_text = "%"
endpoint_result = 100

[[record]]
molecule = "CCCCNC(=O)CCCNC(=O)CCC"
units_text = "%"
endpoint_result = 0

[[record]]
molecule = "CCCCNC(=O)C(C)CCNC(=O)CCC (stereo not drawn)"
units_text = "%"
endpoint_result = 0

[[record]]
molecule = "CCCCN(CCCC)C(=O)CCCNC(=O)C(C)C"
units_text = "%"
endpoint_result = 0

[[record]]
molecule = "CCCC(=O)NCCCC(=O)NCC"
units_text = "%"
endpoint_result = 0

[[record]]
molecule = "CCCCN(CCCC)C(=O)CCCNC(=O)CCC"
units_text = "%"
endpoint_result = 100

[[record]]
molecule = "CCCC(=O)NCCCC(=O)N(CCC)CCC"
units_text = "%"
endpoint_result = 0

[[record]]
molecule = "CCCCNC(=O)CCCNC(=O)C1CC1"
units_text = "%"
endpoint_result = 0

[[record]]
molecule = "CCCCNC(=O)CCCNC(=O)CC(C)C"
units_text = "%"
endpoint_result = 20

[[record]]
molecule = "CCCC(=O)NCCCC(=O)N(C(C)CC)C(C)CC (stereo not drawn)"
units_text = "%"
endpoint_result = 100

[[record]]
molecule = "CCCC(=O)NCCCC(N)=O"
units_text = "%"
endpoint_result = 0


----------
test_name: Acute toxicity (mortality over 24 h)
protocol_conditions: in vivo, po; mouse, 1000 mg/kg p. os, observed 24 h; read-out: p. cent de mortalité à 1000 mg/kg p. os
Entries and their measured mortality at 24 h follow.
measure_name: mortality at 24 h (%)

[[record]]
molecule = "CCCC(=O)NCCCC(=O)NC(C)(C)CC"
units_text = "%"
endpoint_result = 80

[[record]]
molecule = "CCCCCCNC(=O)CCCNC(=O)CCC"
units_text = "%"
endpoint_result = 0

[[record]]
molecule = "CCCC(=O)NCCCC(=O)NC1CCCC1"
units_text = "%"
endpoint_result = 20

[[record]]
molecule = "CCCCN(CCCC)C(=O)CCCNC(=O)C(C)(C)C"
units_text = "%"
endpoint_result = 0

[[record]]
molecule = "CCCC(=O)NCCCC(=O)NCc1ccccc1"
units_text = "%"
endpoint_result = 0

[[record]]
molecule = "CCCCN(CCCC)C(=O)CCNC(=O)CCC"
units_text = "%"
endpoint_result = 100

[[record]]
molecule = "CCCC(=O)NCCCC(=O)N1CCOCC1"
units_text = "%"
endpoint_result = 0

[[record]]
molecule = "CCCCN(CCCC)C(=O)CCNC(=O)C(C)(C)C"
units_text = "%"
endpoint_result = 0

[[record]]
molecule = "CCCNC(=O)CCCNC(=O)CCC"
units_text = "%"
endpoint_result = 0

[[record]]
molecule = "CCCCNC(=O)CCC(C)NC(=O)CCC (stereo not drawn)"
units_text = "%"
endpoint_result = 20

[[record]]
molecule = "CCCCNC(=O)CC(C)NC(=O)CCC (stereo not drawn)"
units_text = "%"
endpoint_result = 20

[[record]]
molecule = "CCCCNC(=O)CCNC(=O)CCC"
units_text = "%"
endpoint_result = 0


----------
test_name: Acute toxicity (mortality over 24 h)
protocol_conditions: in vivo, po; mouse, 500 mg/kg p. os, observed 24 h; read-out: p. cent de mortalité à 500 mg/kg p. os
measure_name: mortality at 24 h (%)

[[record]]
compound = "CCCC(=O)NCCCC(=O)N(CCC)CCC"
endpoint_result = 0

[[record]]
compound = "CCCCN(CCCC)C(=O)CCNC(=O)C(C)(C)C"
endpoint_result = 0

[[record]]
compound = "CCCCNC(=O)CC(C)NC(=O)CCC (stereo not drawn)"
endpoint_result = 0

